Tested on: 996289-038-R-J1-PDC complex spheroid viability;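 also: spheroids exposed to the agents for 7 days before readout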
Assay: Anticancer human tumor 996289-038-R-J1-PDC patient-derived colon adenocarcinoma cell line growth inhibition [CLK]
Settings: second compound 0.1 µM; first compound 0.0949 µM; hits give low values
Source text: A high-throughput screen of multi-cell type tumor spheroids was designed to identify active combinations of […] and targeted small molecules. Complex spheroids include a stromal component modeled by human endothelial cells (HUVEC) and fibroblasts modeled by human mesenchymal stem cells (MSCs). […] Compounds. […] If the clinical Cmax for an agent had not been determined, the highest concentration tested was 10 microM. […]
Can you tell me viability, T/C for the items I'm about to list?
Numbers only, in %.

Observe how each entry below is paired with its result.
compound="CC(C)CC(NC(=O)C(Cc1ccccc1)NC(=O)c1cnccn1)B(O)O (stereo not drawn) + CNC(=O)c1ccc(Nc2nc(OC3CCCC3)c3c(-c4ccc5nc(C)oc5c4)c[nH]c3n2)c(OC)c1" numeric_value=0.54
compound="NC(=O)C(=Cn1cnc(-c2cc(C(F)(F)F)cc(C(F)(F)F)c2)n1)c1cncnc1 + CNC(=O)c1ccc(Nc2nc(OC3CCCC3)c3c(-c4ccc5nc(C)oc5c4)c[nH]c3n2)c(OC)c1" numeric_value=45.8

Continue with the compound presented below.
Could you tell me which viability, T/C is on file for NC(=O)C(=Cn1cnc(-c2cc(C(F)(F)F)cc(C(F)(F)F)c2)n1)c1cncnc1 + CN1CCN(c2cc(C(=O)Nc3cc4cc(-c5cnn(C)c5)ccc4cn3)ccn2)CC1 ? 24.9
